Experiment: chemical genetic growth profiling, strain panel (AID 1159580);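 note: tested at 20 µM; growth read once vehicle control cultures reached saturation at 30 °C; 1 = growth at the plate median or of vehicle wells; lower values mean less growth of the strain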
Condition Summary: S. cerevisiae deletion strains, growth OD, locus YDL035C, strain GPR1
About 2,000 (36%) of roughly 5,500 compounds were called active. About 18% were inconclusive and are not listed. Cut-off read from the data, not from the text of the source: active = normalized growth mostly below about 0.91 (no sharp cut-off); inconclusive = no clear call, values can overlap the other calls; inactive = mostly above about 0.92. Some of the results follow.
Labels: label 1 (active), label 0 (inactive)

Compound	Label Value
COc1ccc2oc3ccccc3c(=O)c2c1	label 0
O=C1CCCCC/C=C/CCCCCCCCO1	label 0
COc1ccc2c(=O)c(OC)c(-c3ccccc3)oc2c1	label 1
COC(=O)[C@@H]1OC(=O)C2OC23[C@@]1(C)CCC1[C@]2(C)C(C[C@@H](O)[C@]13C)C(C)(C)[C@H](OC(C)=O)C[C@@H]2OC(C)=O (stereo not given in full)	label 0
NC(N)=NCCCCN=C(N)N	label 0
CC12CCC3C(=CCc4cc(O)ccc43)C1CCC2=O (stereo not given)	label 0
c1ccc2c(CC3=NCCN3)cccc2c1	label 0
CCC(=O)OC1[C@@H]2CC3=C4CC(=O)O[C@@H](c5ccoc5)[C@]4(C)CCC3[C@@](C)(C2=O)[C@@H](CC(=O)OC)C1(C)C (stereo not given in full)	label 0
CC(=O)O[C@H]1C[C@@H](OC(C)=O)C(C)(C)C2C[C@@H](OC(C)=O)[C@]3(C)C(CC[C@@]4(C)[C@H](c5ccoc5)OC(=O)[C@H]5O[C@]543)[C@]21C (stereo not given in full)	label 0
COC(=O)/C(C)=C\CC12OC(C)(C)C3CC(C=C4C(=O)c5c(OC)c6c(c(CC=C(C)C)c5OC431)OC(C)(CCC=C(C)C)C=C6)C2=O (stereo not given)	label 0
C1N2CN3CN1CN(C2)C3	label 0
COc1ccc(CCC(=O)c2c(O)cc(O[C@@H]3O[C@H](CO)C(O)[C@H](O)C3O[C@@H]3O[C@@H](C)[C@H](O)[C@@H](O)[C@H]3O)cc2O)cc1O (stereo not given in full)	label 0
CC(=O)O[C@H]1CC[C@@]2(C)C(C[C@@H](OC(C)=O)[C@]3(C)C2CC[C@@]2(C)[C@H](c4ccoc4)OC(=O)[C@H]4O[C@]423)C1(C)C (stereo not given in full)	label 0
O=c1cccc2n1CC1CC2CN2CCCC[C@@H]12 (stereo not given in full)	label 0
NCCCNCCSP(=O)(O)O	label 0
O=C(O)C(O)C(O)C(O)C(O)C(=O)O (stereo not given)	label 0
CC(=O)O[C@H]1C[C@@]2(C)[C@@H](C[C@@H](O)C3[C@]2(C)CC[C@H]2[C@H](C)[C@H](O)CC[C@]32C)/C1=C(/CCC=C(C)C)C(=O)O (stereo not given in full)	label 0
COc1cc2c(cc1OC)C1(O)C(=O)c3ccc(O)c(C(=O)O)c3OC1CO2 (stereo not given)	label 0
Cc1cc(CC(=O)O)n(C)c1C(=O)c1ccc(Cl)cc1	label 0
O=C(O)C(O)C(O)C(=O)O (stereo not given)	label 0

###

Examples of compounds with documented normalized growth follow.
Experiment: chemical genetic growth profiling, strain panel (AID 1159580);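 note: tested at 20 µM; growth read once vehicle control cultures reached saturation at 30 °C; 1 = growth at the plate median or of vehicle wells; lower values mean less growth of the strain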
Condition Summary: S. cerevisiae strains, growth OD, strain wild type, stronger effect = lower value
The whole screen tested about 5,500 compounds, of which about 2,000 (36%) were called active. Not shown: some 18% with an inconclusive outcome. Some of the results follow.

Compound	normalized growth
CC(=O)O[C@@H]1CC2C(C)(C)[C@H](O)CC[C@]2(C)C2CC[C@@]3(C)[C@H](c4ccoc4)OC(=O)C4OC43[C@@]21C (stereo not given in full)	1
c1ccc2c(CC3=NCCN3)cccc2c1	1
C[C@]12CCC3C(CC[C@H]4C[C@@H](O)CC[C@]34C)C1CC[C@@H]2O (stereo not given in full)	0.99
CC12CCC3C(CC[C@H]4CC5(CCC34C)OCCO5)C1CCC2O (stereo not given in full)	1.02
O=C(Nc1cc(C(F)(F)F)cc(C(F)(F)F)c1)C(c1ccccc1)C1CCCC1 (stereo not given)	1
CC(=O)OC1CC(OC(C)=O)C2(C)C(CC(OC(C)=O)C3(C)C2CCC2(C)C(c4ccoc4)OC(=O)C4OC423)C1(C)C (stereo not given)	0.983
N[C@@H](C(=O)O)[C@@H](O)[C@H](O)[C@H](O)CO	1.01
NCCCNCCSP(=O)(O)O	0.977
CC(=O)C1CCC2C3CCC4C[C@H](O)CCC4(C)C3C[C@H](O)C12C (stereo not given in full)	1.07
C[C@]12CCC3c4ccc(O)cc4CCC3C1CCC2=O (stereo not given in full)	1
CC(C)(C)NC(=S)NC1CCN(Cc2ccccc2)CC1	0.981
CC(=O)OC1CC(O)C(C)(C)C2CC(=O)C3(C)C(CCC4(C)C(c5ccoc5)OC(=O)C5OC543)C12C (stereo not given)	1
CCOC(=O)c1cnn(-c2ccc(N)cc2)c1C(F)(F)F	0.977
O=C1CCCCC/C=C/CCCCCCCCO1	0.97
CN(C)CCC(c1ccccc1)c1ccccn1 (stereo not given)	1.01
NC(N)=NCCCCN=C(N)N	0.998
O=C(CN1CCOCC1)Nc1cc(C(F)(F)F)cc(C(F)(F)F)c1	0.999
CCOC(=O)C(O)(c1ccc(N)c(C)c1)C(F)(F)F (stereo not given)	0.981
CN[C@@H]1C(OC2[C@H](O[C@H]3[C@H](O)[C@@H](O)[C@H](N=C(N)N)[C@@H](O)[C@@H]3N=C(N)N)OC(C)[C@]2(O)CO)OC(CO)C(O)C1O (stereo not given in full)	0.999
CC(=O)O[C@H]1C[C@@]2(C)[C@@H](C[C@@H](O)C3[C@]2(C)CC[C@H]2[C@H](C)[C@H](O)CC[C@]32C)/C1=C(/CCC=C(C)C)C(=O)O (stereo not given in full)	1.01
Cc1nn(Cc2ccccc2Cl)c(=N)s1	0.96
COC1=CC(=O)OC(CCc2ccc(OC)c(OC)c2)C1 (stereo not given)	0.999
CCOC(=O)c1cnn(-c2ccc(F)cc2)c1N	0.993
O=C(O)C(O)C(O)C(=O)O (stereo not given)	0.996
NCCCCNCCCN	1.01

Each recorded value in this set is attributed to PubChem BioAssay AID1159580.
